- assay-system: human TDO2 (Homo sapiens (Human))
- method-notes: Assay for TDO2 enzymatic activity determination
- Format: biochemical
- condition-context: human recombinant TDO2, L-Trp 1 mM, kynurenine absorbance at 480 nm
property-measured: log10 of IC50 (log10 of the value in nM)
Please keep in mind that the values are log10 of IC50 expressed in nM.

Sample records with log10 of IC50:
| structure | measured |
| --- | --- |
| Fc1ccc2c(-c3cccnc3)c[nH]c2c1 | 2.93 |
| CN1CCC(Oc2ccc(-c3c[nH]c4cc(F)ccc34)cn2)CC1 | 3.08 |

[Q] // fetch log10 of IC50 given entry CC(=O)Nc1ccc(-c2c[nH]c3cc(F)ccc23)cn1
[A] 3.00

[Q] Please report log10 of IC50 for the following compound: Fc1ccc2c(-c3ccc(NC4CCNCC4)nc3)c[nH]c2c1
[A] 2.94

[Q] Read off the recorded log10 of IC50 for CN1CCN(c2ccc(-c3c[nH]c4cc(F)ccc34)cn2)CC1
[A] 2.86

====

Listed below: pIC50 values for each entry.
- assay-system: human TDO2 (Homo sapiens (Human))
- method-notes: Cellular assay for TDO2 activity, hTDO2-overexpressing P815 cells
- Assay type: cell-based
- condition-context: murine mastocytoma P815 cells overexpressing hTDO2, overnight incubation, kynurenine in supernatant
Units for pIC50: none; it is -log10 of a concentration expressed in mol/L.

Some solved entries appear below for comparison.
| structure | pIC50 |
| --- | --- |
| CC(=O)NCCNc1ccc(-c2c[nH]c3cc(F)ccc23)cn1 | 6.00 |
| NS(=O)(=O)CCNc1ccc(-c2c[nH]c3cc(F)ccc23)cn1 | 6.62 |
| Cc1ccncc1-c1c[nH]c2cc(F)ccc12 | 6.17 |
| O=C(Nc1ccc(-c2c[nH]c3cc(F)ccc23)cn1)C1CCNCC1 | 6.60 |
| NCC(=O)NC1CCN(c2ccc(-c3c[nH]c4cc(F)ccc34)cn2)CC1 | 6.26 |

[Q] Consider the compound C[C@H](N)C(=O)Nc1ccc(-c2c[nH]c3cc(F)ccc23)cn1 . State its measured pIC50.
[A] 6.35

====

// pIC50 lookup, one value per entry
- assay-system: human TDO2 (Homo sapiens (Human))
- method-notes: Cellular assay for TDO2 activity, hTDO2-overexpressing P815 cells
- Type: cell-based
- condition-context: murine mastocytoma P815 cells overexpressing hTDO2, overnight incubation, kynurenine in supernatant
The read-out pIC50 is expressed as -log10 of concentration in moles per litre.

[Q] State its pIC50 for this molecule: NCC(=O)Nc1ccc(-c2c[nH]c3cc(F)ccc23)cn1
[A] 6.46

[Q] Give the measured pIC50 for CS(=O)(=O)CCNc1ccc(-c2c[nH]c3cc(F)ccc23)cn1
[A] 6.00

[Q] Provide measured pIC50 value, entry: COc1ccc(-c2c[nH]c3cc(F)ccc23)cn1
[A] 6.92

[Q] Could you please provide reported pIC50 for CC(=O)Nc1ccc(-c2c[nH]c3cc(F)ccc23)cn1 ? Thanks!
[A] 6.82

[Q] Give reported pIC50 value for CS(=O)(=O)NC1CCN(c2ccc(-c3c[nH]c4cc(F)ccc34)cn2)CC1
[A] 6.21

====

- assay-system: human TDO2 (Homo sapiens (Human), UniProt P48775)
- Sequence (P48775 whole entry): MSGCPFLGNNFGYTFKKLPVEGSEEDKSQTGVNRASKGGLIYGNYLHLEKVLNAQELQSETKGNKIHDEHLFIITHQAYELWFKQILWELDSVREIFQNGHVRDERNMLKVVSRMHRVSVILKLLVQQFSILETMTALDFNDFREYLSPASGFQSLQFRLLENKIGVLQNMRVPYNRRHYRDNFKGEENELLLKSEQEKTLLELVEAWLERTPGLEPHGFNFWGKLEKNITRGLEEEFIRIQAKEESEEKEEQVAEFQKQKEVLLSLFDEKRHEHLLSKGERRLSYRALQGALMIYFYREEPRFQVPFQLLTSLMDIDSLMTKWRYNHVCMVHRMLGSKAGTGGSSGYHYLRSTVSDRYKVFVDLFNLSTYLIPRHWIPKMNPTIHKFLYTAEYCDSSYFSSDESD
- method-notes: Cellular assay for TDO2 activity, A172 cells naturally expressing hTDO2
- Assay type: cell-based
- condition-context: human glioblastoma A172 cells, overnight incubation, kynurenine in supernatant
Recorded IC50, one value per entry.
Report the figure in nM without appending any unit label.

Illustrative cases are given below, each with its answer.
| structure | IC50, nM |
| --- | --- |
| Nc1nc2ccc(-c3ccc(-c4c[nH]c5cc(F)ccc45)cn3)cc2[nH]1 | 460 |
| CS(=O)(=O)NCCNS(=O)(=O)c1ccc(-c2c[nH]c3cc(F)ccc23)cn1 | 350 |
| CS(=O)(=O)NC1CCN(c2ccc(-c3c[nH]c4cc(Cl)ccc34)cn2)CC1 | 4700 |
| O=C1COCCN1c1ccc(-c2c[nH]c3cc(F)ccc23)cn1 | 590 |

[Q] Give the value of IC50 reported for the following: CN(C)C(=O)Nc1ccc(-c2c[nH]c3cc(F)ccc23)cn1
[A] 820
